# Lookup of reported Activity keyed by entry
target: ATP-dependent translocase ABCB1 (Homo sapiens, UniProt P08183); assay: Reversal of human MDR1-mediated multidrug resistance in mouse L5178Y cells expressing MDR1 assessed as forward scatter count measured by cell size ratio at 20 uM after 10 mins by flow cytometry; format: cell-based
Sequence (P08183 whole entry): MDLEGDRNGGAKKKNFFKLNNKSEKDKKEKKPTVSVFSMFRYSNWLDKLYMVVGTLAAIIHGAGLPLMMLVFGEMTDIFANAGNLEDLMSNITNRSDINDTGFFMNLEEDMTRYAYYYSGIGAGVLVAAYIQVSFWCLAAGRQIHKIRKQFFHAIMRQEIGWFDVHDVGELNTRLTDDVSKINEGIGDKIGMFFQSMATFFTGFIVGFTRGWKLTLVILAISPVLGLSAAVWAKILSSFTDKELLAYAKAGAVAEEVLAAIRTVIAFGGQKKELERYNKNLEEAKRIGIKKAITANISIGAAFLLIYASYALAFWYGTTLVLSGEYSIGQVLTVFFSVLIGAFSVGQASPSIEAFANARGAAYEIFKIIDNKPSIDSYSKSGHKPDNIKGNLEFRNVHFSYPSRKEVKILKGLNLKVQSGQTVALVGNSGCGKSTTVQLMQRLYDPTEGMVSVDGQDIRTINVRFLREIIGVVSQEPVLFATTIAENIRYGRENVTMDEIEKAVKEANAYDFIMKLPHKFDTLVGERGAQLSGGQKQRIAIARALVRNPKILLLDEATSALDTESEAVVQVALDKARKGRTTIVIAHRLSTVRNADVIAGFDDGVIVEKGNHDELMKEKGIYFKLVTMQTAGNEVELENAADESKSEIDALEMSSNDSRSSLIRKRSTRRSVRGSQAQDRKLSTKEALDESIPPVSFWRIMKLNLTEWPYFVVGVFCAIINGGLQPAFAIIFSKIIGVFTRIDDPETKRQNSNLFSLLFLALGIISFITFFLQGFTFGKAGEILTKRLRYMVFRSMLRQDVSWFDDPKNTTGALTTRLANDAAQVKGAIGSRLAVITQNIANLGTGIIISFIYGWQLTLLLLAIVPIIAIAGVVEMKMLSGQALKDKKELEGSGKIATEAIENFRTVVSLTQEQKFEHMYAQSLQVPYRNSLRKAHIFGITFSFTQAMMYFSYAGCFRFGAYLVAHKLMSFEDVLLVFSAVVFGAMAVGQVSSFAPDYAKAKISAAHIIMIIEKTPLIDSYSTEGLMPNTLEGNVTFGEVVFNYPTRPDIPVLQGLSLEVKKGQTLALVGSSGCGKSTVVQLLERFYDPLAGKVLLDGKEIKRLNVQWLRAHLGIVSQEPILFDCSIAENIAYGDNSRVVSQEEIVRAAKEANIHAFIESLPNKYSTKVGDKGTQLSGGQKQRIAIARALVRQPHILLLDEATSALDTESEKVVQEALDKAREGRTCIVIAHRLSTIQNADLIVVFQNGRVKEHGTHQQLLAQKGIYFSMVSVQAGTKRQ

- MOLECULE: "CCCC(=O)O[C@@H](C=C(C)C)C[C@@H](C)[C@H]1CC[C@@]2(C)[C@@H]3[C@@H](OC)C=C4[C@@H](CC[C@H](O)C4(C)C)[C@]3(C)CC[C@]12C [KARAVOATE E]"
  Activity: 461.9
- MOLECULE: "CO[C@H]1C=C2[C@@H](CC[C@H](O)C2(C)C)[C@]2(C)CC[C@]3(C)[C@@H]([C@H](C)C[C@H](C=C(C)C)OC(C)=O)CC[C@@]3(C)[C@H]12 [KARAVOATE A]"
  Activity: 518.1
- MOLECULE: "C[C@H](C/C=C/C(C)(C)O)[C@H]1CC[C@@]2(C)[C@@H]3[C@@H](O)C=C4[C@@H](CC[C@H](O)[C@]4(C)CO)[C@]3(C)CC[C@]12C"
  Activity: 447.4
- MOLECULE: "CCC(=O)O[C@H]1CC[C@@H]2C(=C[C@H](OC)[C@@H]3[C@@]2(C)CC[C@]2(C)[C@@H]([C@H](C)C[C@H](C=C(C)C)OC(=O)CC)CC[C@@]32C)C1(C)C [KARAVOATE D]"
  Activity: 463.1
- MOLECULE: "COC(C)(C)/C=C/C[C@@H](C)[C@H]1CC[C@@]2(C)[C@@H]3[C@@H](O)C=C4[C@@H](CC[C@H](O)[C@]4(C)CO)[C@]3(C)CC[C@]12C"
  Activity: 454.4

* * *

Recorded measurements of Activity, one per entry
biological target: ATP-dependent translocase ABCB1 (Homo sapiens); experiment: Reversal of human MDR1-mediated multidrug resistance in mouse L5178Y cells expressing MDR1 assessed as side scatter count measured by cell size ratio at 2 uM after 10 mins by flow cytometry; type: cell-based
READOUT_LABEL: Activity

- COMPOUND: "C[C@H](C/C=C/C(C)(C)O)[C@H]1CC[C@@]2(C)[C@@H]3[C@@H](O)C=C4[C@@H](CC[C@H](O)[C@]4(C)CO)[C@]3(C)CC[C@]12C [BALSAMINAGENIN A]"
  OBSERVED_MEASUREMENT: 261.2
- COMPOUND: "CO[C@H]1C=C2[C@@H](CC[C@H](O)C2(C)C)[C@]2(C)CC[C@]3(C)[C@@H]([C@H](C)C[C@@H](O)C=C(C)C)CC[C@@]3(C)[C@H]12 [KARAVELAGENIN C]"
  OBSERVED_MEASUREMENT: 215.4
- COMPOUND: "CCCC(=O)O[C@@H](C=C(C)C)C[C@@H](C)[C@H]1CC[C@@]2(C)[C@@H]3[C@@H](OC)C=C4[C@@H](CC[C@H](O)C4(C)C)[C@]3(C)CC[C@]12C [KARAVOATE E]"
  OBSERVED_MEASUREMENT: 235.9
- COMPOUND: "CCC(=O)O[C@H]1CC[C@@H]2C(=C[C@H](OC)[C@@H]3[C@@]2(C)CC[C@]2(C)[C@@H]([C@H](C)C[C@H](C=C(C)C)OC(=O)CC)CC[C@@]32C)C1(C)C [KARAVOATE D]"
  OBSERVED_MEASUREMENT: 237.9
- COMPOUND: "COC(C)(C)/C=C/C[C@@H](C)[C@H]1CC[C@@]2(C)[C@@H]3[C@@H](O[C@H]4O[C@@H](CO)[C@H](O)[C@H](O)[C@@H]4O)C=C4[C@@H](CC[C@H](O)C4(C)C)[C@]3(C)CC[C@]12C [BALSAMINOSIDE A]"
  OBSERVED_MEASUREMENT: 253.8
- COMPOUND: "CCC(=O)O[C@@H](C=C(C)C)C[C@@H](C)[C@H]1CC[C@@]2(C)[C@@H]3[C@@H](OC)C=C4[C@@H](CC[C@H](O)C4(C)C)[C@]3(C)CC[C@]12C [KARAVOATE C]"
  OBSERVED_MEASUREMENT: 249.9
- COMPOUND: "CO[C@H]1C=C2[C@@H](CC[C@H](O)C2(C)C)[C@]2(C)CC[C@]3(C)[C@@H]([C@H](C)C[C@H](C=C(C)C)OC(C)=O)CC[C@@]3(C)[C@H]12 [KARAVOATE A]"
  OBSERVED_MEASUREMENT: 254.9
- COMPOUND: "CO[C@H]1C=C2[C@@H](CC[C@H](OC(C)=O)C2(C)C)[C@]2(C)CC[C@]3(C)[C@@H]([C@H](C)C[C@H](C=C(C)C)OC(C)=O)CC[C@@]3(C)[C@H]12 [KARAVOATE B]"
  OBSERVED_MEASUREMENT: 247
- COMPOUND: "COC(C)(C)/C=C/C[C@@H](C)[C@H]1CC[C@@]2(C)[C@@H]3[C@@H](O)C=C4[C@@H](CC[C@H](O)[C@]4(C)CO)[C@]3(C)CC[C@]12C [BALSAMINAGENIN B]"
  OBSERVED_MEASUREMENT: 261.1

* * *

target: ATP-dependent translocase ABCB1 (Homo sapiens); assay: Reversal of human MDR1-mediated multidrug resistance in mouse L5178Y cells expressing MDR1 assessed as forward scatter count measured by cell size ratio at 2 uM after 10 mins by flow cytometry; assay type: cell-based
Activity listing for selected molecules.
READOUT_LABEL: Activity

- MOLECULE: "CO[C@H]1C=C2[C@@H](CC[C@H](O)C2(C)C)[C@]2(C)CC[C@]3(C)[C@@H]([C@H](C)C[C@@H](O)C=C(C)C)CC[C@@]3(C)[C@H]12 [KARAVELAGENIN C]"
  OBSERVED_MEASUREMENT: 468.8
- MOLECULE: "CCC(=O)O[C@H]1CC[C@@H]2C(=C[C@H](OC)[C@@H]3[C@@]2(C)CC[C@]2(C)[C@@H]([C@H](C)C[C@H](C=C(C)C)OC(=O)CC)CC[C@@]32C)C1(C)C [KARAVOATE D]"
  OBSERVED_MEASUREMENT: 454
- MOLECULE: "CCCC(=O)O[C@@H](C=C(C)C)C[C@@H](C)[C@H]1CC[C@@]2(C)[C@@H]3[C@@H](OC)C=C4[C@@H](CC[C@H](O)C4(C)C)[C@]3(C)CC[C@]12C [KARAVOATE E]"
  OBSERVED_MEASUREMENT: 448.7
- MOLECULE: "CCC(=O)O[C@@H](C=C(C)C)C[C@@H](C)[C@H]1CC[C@@]2(C)[C@@H]3[C@@H](OC)C=C4[C@@H](CC[C@H](O)C4(C)C)[C@]3(C)CC[C@]12C [KARAVOATE C]"
  OBSERVED_MEASUREMENT: 466.3

* * *

system: L5178Y; assay: Antiproliferative activity against multidrug resistance mouse L5178Y cells expressing human MDR1 after 72 hrs by MTT assay; assay type: functional; conditions: read-out: ID50 (the source's name)

- MOLECULE: "C[C@H](C/C=C/C(C)(C)O)[C@H]1CC[C@@]2(C)[C@@H]3[C@@H](O)C=C4[C@@H](CC[C@H](O)[C@]4(C)CO)[C@]3(C)CC[C@]12C [BALSAMINAGENIN A]"
  UNIT_OF_MEASUREMENT: "µM"
  COMPARISON_SIGN: "="
  IC50: 25.9
- MOLECULE: "CO[C@H]1C=C2[C@@H](CC[C@H](O)C2(C)C)[C@]2(C)CC[C@]3(C)[C@@H]([C@H](C)C[C@H](C=C(C)C)OC(C)=O)CC[C@@]3(C)[C@H]12 [KARAVOATE A]"
  UNIT_OF_MEASUREMENT: "µM"
  COMPARISON_SIGN: "="
  IC50: 34.8
- MOLECULE: "COC(C)(C)/C=C/C[C@@H](C)[C@H]1CC[C@@]2(C)[C@@H]3[C@@H](O[C@H]4O[C@@H](CO)[C@H](O)[C@H](O)[C@@H]4O)C=C4[C@@H](CC[C@H](O)C4(C)C)[C@]3(C)CC[C@]12C [BALSAMINOSIDE A]"
  UNIT_OF_MEASUREMENT: "µM"
  COMPARISON_SIGN: "="
  IC50: 20.8
- MOLECULE: "CCC(=O)O[C@@H](C=C(C)C)C[C@@H](C)[C@H]1CC[C@@]2(C)[C@@H]3[C@@H](OC)C=C4[C@@H](CC[C@H](O)C4(C)C)[C@]3(C)CC[C@]12C [KARAVOATE C]"
  UNIT_OF_MEASUREMENT: "µM"
  COMPARISON_SIGN: "="
  IC50: 43.5
- MOLECULE: "CCC(=O)O[C@H]1CC[C@@H]2C(=C[C@H](OC)[C@@H]3[C@@]2(C)CC[C@]2(C)[C@@H]([C@H](C)C[C@H](C=C(C)C)OC(=O)CC)CC[C@@]32C)C1(C)C [KARAVOATE D]"
  UNIT_OF_MEASUREMENT: "µM"
  COMPARISON_SIGN: ">"
  IC50: 133
- MOLECULE: "CO[C@H]1C=C2[C@@H](CC[C@H](OC(C)=O)C2(C)C)[C@]2(C)CC[C@]3(C)[C@@H]([C@H](C)C[C@H](C=C(C)C)OC(C)=O)CC[C@@]3(C)[C@H]12 [KARAVOATE B]"
  UNIT_OF_MEASUREMENT: "µM"
  COMPARISON_SIGN: "="
  IC50: 60.2
